Sourced from ChEMBL document CHEMBL1268913

Field: pKi. Provide a value for each of the compounds that follow.
Scale: negative log10 of molar concentration, which is what pKi denotes.

Query: Provide the documented pKi with UniProt:B4URF0 as the system for CCC(CC)O[C@@H]1CC(C(=O)O)=C[C@H](NC(=N)N)[C@H]1NC(C)=O
Sequence (B4URF0 whole entry): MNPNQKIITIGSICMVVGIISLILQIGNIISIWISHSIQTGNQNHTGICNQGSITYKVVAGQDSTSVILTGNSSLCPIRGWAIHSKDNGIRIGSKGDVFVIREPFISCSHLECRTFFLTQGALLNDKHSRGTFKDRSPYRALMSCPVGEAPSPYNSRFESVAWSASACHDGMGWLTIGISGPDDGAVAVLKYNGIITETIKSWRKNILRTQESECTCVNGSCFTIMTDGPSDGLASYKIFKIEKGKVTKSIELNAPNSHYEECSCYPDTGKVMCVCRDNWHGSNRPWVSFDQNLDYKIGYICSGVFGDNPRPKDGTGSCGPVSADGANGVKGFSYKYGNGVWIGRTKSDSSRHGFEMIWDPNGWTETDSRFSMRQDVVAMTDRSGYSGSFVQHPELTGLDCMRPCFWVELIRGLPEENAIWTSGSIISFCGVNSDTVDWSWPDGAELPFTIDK
Result: 9.34

Query: Test system UniProt:B4URF0; read-out pKi; what value for CCC(CC)O[C@@H]1CC(C(=O)O)=C[C@H](n2cc(C(O)CC)nn2)[C@H]1NC(C)=O (some centres undefined) ?
Result: 7.14

Query: Give the reported pKi for CCC(CC)O[C@@H]1CC(C(=O)O)C=C(n2cc(C(C)(C)O)nn2)[C@H]1NC(C)=O (mixture of isomers) (system: UniProt:B4URF0).
Result: 4.72

Query: State its pKi on UniProt:B4URF0: CCC(CC)O[C@@H]1CC(C(=O)O)=C[C@H](n2cc(CCCO)nn2)[C@H]1NC(C)=O
Result: 6.34

Query: Query pKi on UniProt:B4URF0 for CCC(CC)O[C@@H]1CC(C(=O)O)=C[C@H](n2cc(C(C)(C)O)nn2)[C@H]1NC(C)=O
Result: 6.89

Query: Record CCC(CC)O[C@@H]1CC(C(=O)O)=C[C@H](n2cc([C@]3(O)CC[C@H]4[C@@H]5CCc6cc(O)ccc6[C@H]5CC[C@@]43C)nn2)[C@H]1NC(C)=O : what is its pKi with UniProt:B4URF0?
Result: 5.24

Query: Kindly state the measured pKi obtained for CCC(CC)O[C@@H]1CC(C(=O)O)=C[C@H](n2cc(CCc3ccccc3)nn2)[C@H]1NC(C)=O with UniProt:B4URF0.
Result: 5.92

Query: Field: pKi (UniProt:B4URF0). Entry: CCC(CC)O[C@@H]1CC(C(=O)O)C=C(n2cc(CCc3ccccc3)nn2)[C@H]1NC(C)=O (mixture of isomers)
Result: 4.22

Query: Hi! What's the reported pKi for CC(=O)N[C@H]1[C@H]([C@H](O)[C@H](O)CO)OC(C(=O)O)=C[C@@H]1O on UniProt:B4URF0?
Result: 5.23
